B1: CIB1 (parent)
chain: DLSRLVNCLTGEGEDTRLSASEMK

Variants of: B1
assay.explanation: protein stability index of a GFP-peptide fusion (GPS, HEK-293T) (PSI 1-6); higher = more stable;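 note: lentivirally expressed fusions sorted by FACS into six bins by GFP to DsRed ratio, PSI derived from sequencing read proportions per bin multiplied by bin number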
assay.conditions: c terminus: a fixed tail appended
# protein stability index >= 3 gives Satisfied, anything below gives Not satisfied

Task: Exam item: decide whether the reported protein stability index for DLSRLVNCLTGEGEDTRLSTSEMK is at least 3.
Output: Not satisfied

Task: Check if protein stability index >= 3 (inclusive). Item: DLERLVNCLTGEGEDTRLSASEMK
Output: Not satisfied

Task: Confirm if protein stability index reported for the variant DLNRLVNCLTGEGEDTRLSASEMK is 3 or above.
Output: Not satisfied

Task: Is protein stability index at least 3? Consider DLSRLVNCLTGEGEDTRRSASEMK
Output: Satisfied

Task: State whether the measured protein stability index reaches 3, counting equality as reaching it, for DLSRLVNCLTEEGEDTRLSASEMK
Output: Satisfied

Task: hey, is protein stability index for this one >= 3? DLSRLVNCLTGEGEDTRLSASEWK
Output: Not satisfied

Task: Decide: protein stability index of DLSALVNCLTGEGEDTRLSASEMK >= 3?
Output: Satisfied

Task: Has DLSRLVNCLTGEGEDTRLSATEMK a recorded protein stability index greater than or equal to 3?
Output: Satisfied

Task: Check this variant for protein stability index at or above 3: DLSRLVWCLTGEGEDTRLSASEMK
Output: Not satisfied

Task: Item DLSRLVNGLTGEGEDTRLSASEMK with protein stability index of 3 or above?
Output: Satisfied

Task: // inclusive: protein stability index at least 3? input: DLSCLVNCLTGEGEDTRLSASEMK
Output: Satisfied

Task: Evaluate DLSRLVNCLTGEGEDHRLSASEMK : protein stability index at minimum 3?
Output: Satisfied

Task: Reported protein stability index reaches at least 3 for RLSRLVNCLTGEGEDTRLSASEMK ?
Output: Satisfied

Task: Does the variant DLSRLWNCLTGEGEDTRLSASEMK have recorded protein stability index that is 3 or more?
Output: Not satisfied

Task: Evaluate DLSRLVNCLTGEGEDQRLSASEMK : protein stability index at minimum 3?
Output: Not satisfied

Task: Entry DLSGLVNCLTGEGEDTRLSASEMK : is its protein stability index no less than 3?
Output: Satisfied

Task: Hi team, for DLMRLVNCLTGEGEDTRLSASEMK , is the recorded protein stability index at or above 3?
Output: Satisfied

Task: Answer whether protein stability index of DLRRLVNCLTGEGEDTRLSASEMK is greater than or equal to 3.
Output: Not satisfied

Task: Identify whether the reported protein stability index of the following variant is 3 or greater: DLSRLVNCLTSEGEDTRLSASEMK
Output: Satisfied

Task: Given DLSRLVNCLTGEGEDTPLSASEMK , state whether its protein stability index is at least 3.
Output: Satisfied

Task: Say whether DLSVLVNCLTGEGEDTRLSASEMK shows protein stability index of 3 or more.
Output: Not satisfied

Task: Hi team, for DLSRLVNCQTGEGEDTRLSASEMK , is the recorded protein stability index at or above 3?
Output: Satisfied

Task: // inclusive: protein stability index at least 3? input: DLSRLVNCLTHEGEDTRLSASEMK
Output: Satisfied

Task: Threshold query (protein stability index >= 3) on DLSRLVNCLTGEGEDTRLSQSEMK
Output: Satisfied

Task: Could you verify whether the entry DLSRLVNCLTGEGEDTRLSMSEMK shows protein stability index of no less than 3?
Output: Not satisfied

Task: Exam item: decide whether the reported protein stability index for DLSRLVNCLTGEGEDTRLSASEAK is at least 3.
Output: Satisfied

Task: I'd appreciate it if you could say whether DLSRRVNCLTGEGEDTRLSASEMK has protein stability index at least equal to 3.
Output: Not satisfied

Task: Given the entry DLSRLVNCLTGLGEDTRLSASEMK , answer whether its protein stability index meets or surpasses 3.
Output: Not satisfied

Task: Tell me whether protein stability index is at least 3 here: DLSRLVNCLTREGEDTRLSASEMK
Output: Not satisfied

Task: Test whether the variant DLSRLVNCLTGEGEDTRLSASEMM records protein stability index of 3 or higher.
Output: Not satisfied

Task: Could you verify whether the entry DLSRLVNCLTGEGEDTRLSKSEMK shows protein stability index of no less than 3?
Output: Not satisfied

Task: Does DQSRLVNCLTGEGEDTRLSASEMK have a reported protein stability index of at least 3?
Output: Satisfied

Task: # check: protein stability index of QLSRLVNCLTGEGEDTRLSASEMK is greater than or equal to 3
Output: Satisfied

Task: Assess whether reported protein stability index for DLSRLVNCLTGEGEDTRLSACEMK sits at 3 or higher.
Output: Not satisfied

Task: Could you verify whether the entry DLSRLVNCLTGSGEDTRLSASEMK shows protein stability index of no less than 3?
Output: Not satisfied

Task: # check: protein stability index of DLSRLVNCLTGEGYDTRLSASEMK is greater than or equal to 3
Output: Not satisfied

Task: Exam item: decide whether the reported protein stability index for DLSRLVNCLTGEGFDTRLSASEMK is at least 3.
Output: Not satisfied

Task: Check if protein stability index >= 3 (inclusive). Item: DLSRLVNCLTGEGADTRLSASEMK
Output: Not satisfied

Task: Confirm if protein stability index reported for the variant DLWRLVNCLTGEGEDTRLSASEMK is 3 or above.
Output: Not satisfied

Task: Check if protein stability index >= 3 (inclusive). Item: DLSRLVNCLPGEGEDTRLSASEMK
Output: Not satisfied

Task: Record DLSRLVNCLTGEGDDTRLSASEMK ; criterion: protein stability index no lower than 3. Met?
Output: Not satisfied

Task: Would you say DLSRLVNCVTGEGEDTRLSASEMK shows protein stability index at minimum 3?
Output: Satisfied

Task: Assess whether reported protein stability index for DLSRLVNCLHGEGEDTRLSASEMK sits at 3 or higher.
Output: Satisfied

Task: Has DLSRLVNCFTGEGEDTRLSASEMK a recorded protein stability index greater than or equal to 3?
Output: Satisfied

Task: Hi team, for DLIRLVNCLTGEGEDTRLSASEMK , is the recorded protein stability index at or above 3?
Output: Not satisfied

Task: In plain terms: is recorded protein stability index at least 3 for DLSRGVNCLTGEGEDTRLSASEMK ?
Output: Satisfied

Task: Entry DLSRLVNCLTGEGEDTRLSASCMK : is its protein stability index no less than 3?
Output: Not satisfied

Task: Has DLSRLVNCLTGEGEDTRLSASRMK a recorded protein stability index greater than or equal to 3?
Output: Not satisfied

Task: Record DLSRLVKCLTGEGEDTRLSASEMK ; criterion: protein stability index no lower than 3. Met?
Output: Not satisfied

Task: Is reported protein stability index greater than or equal to 3 here: DLSRLVNCLTGEWEDTRLSASEMK
Output: Not satisfied

Task: Does the reported protein stability index for DLSRLVNCLTGEGEDTRLSVSEMK fall at or above the 3 mark?
Output: Not satisfied

Task: protein stability index >= 3 for DLSTLVNCLTGEGEDTRLSASEMK ?
Output: Satisfied

Task: Form field: protein stability index at least 3? Entry: DLSRTVNCLTGEGEDTRLSASEMK
Output: Satisfied

Task: Quick check, protein stability index >= 3? DLSRLVNCLDGEGEDTRLSASEMK
Output: Satisfied

Task: Form field: protein stability index at least 3? Entry: DLSRLLNCLTGEGEDTRLSASEMK
Output: Satisfied

Task: Is the recorded value of protein stability index equal to or greater than 3 for this variant? DLSRLVNCLTGEGEDTRLSASIMK
Output: Not satisfied

Task: Quick check, protein stability index >= 3? DLSRLVNCLTGEGEDTRLSAKEMK
Output: Satisfied

Task: Decide: is the reported value of protein stability index for DLSRLVNCLTGEGEDTRESASEMK equal to or greater than 3?
Output: Not satisfied

Task: Quick check, protein stability index >= 3? DLSRLVNCLTGEGEDTSLSASEMK
Output: Not satisfied

Task: Threshold query (protein stability index >= 3) on DLSRLVACLTGEGEDTRLSASEMK
Output: Satisfied

Task: Textbook exercise: given the entry DLSRLVNCLTGEGEKTRLSASEMK , state whether its protein stability index is greater than or equal to 3.
Output: Satisfied

Task: hey, is protein stability index for this one >= 3? DLSRLVNCLTGEGMDTRLSASEMK
Output: Not satisfied
